Entries and their melting point values follow.

compound	melting point
CCOC(=O)C1=C[C@@H]2[C@H]([C@@H]3OC(C)(C)O[C@H]13)N2S(=O)(=O)c1ccc(C)cc1 (stereo partly drawn)	106 to 107 °C
CCOC(=O)[C@@]12C=C[C@H]([C@@H]3OC(C)(C)O[C@@H]31)N(C(C)=O)O2	89 to 90 °C
CC(=O)N[C@H]1C=C(Br)[C@H]2OC(C)(C)O[C@H]2[C@@H]1Br	181 °C
CCOC(=O)C1=C[C@@H](OS(C)(=O)=O)[C@@H](NC(C)=O)[C@@H]2OC(C)(C)O[C@H]12	163 to 165 °C
Cc1ccc(S(=O)(=O)N[C@H]2[C@@H]3OC(C)(C)O[C@@H]3C(Br)=C[C@H]2NC(=O)OC(C)(C)C)cc1	153 to 154 °C
Cc1ccc(S(=O)(=O)N[C@H]2[C@@H]3OC(C)(C)O[C@@H]3C(Br)=C[C@H]2N=[N+]=[N-])cc1	119 to 120 °C
CCOC(=O)C1=C[C@@H](OC(CC)CC)[C@H](NC(C)=O)[C@H](O)[C@@H]1O (stereo in doubt)	154 °C
CCOC(=O)C1C[C@@H](O)[C@@H](NC(C)=O)[C@@H]2OC(C)(C)O[C@H]12 (stereo partly drawn)	156 to 158 °C
CCOC(=O)C1=C[C@@H](OC(CC)CC)[C@H](NC(C)=O)[C@@H]2OC(C)(C)O[C@H]12	112 to 115 °C
CCOC(=O)C1C[C@@H](OS(C)(=O)=O)[C@@H](NC(C)=O)[C@@H]2OC(C)(C)O[C@H]12 (stereo partly drawn)	101 to 102 °C
CCOC(=O)C1=CC=C[C@H](O)[C@@H]1O	48 °C
CC(=O)N1[C@@H]2[C@@H]3OC(C)(C)O[C@@H]3C(Br)=C[C@@H]21	128 °C
